Ref: paper PMC4640066

Target: human γ-tubulin (Homo sapiens, UniProt P23258)
Construct: myc (C); 6His (C); made in house; host or cells: Sf21 insect cells (baculovirus)
Sequence (P23258 whole entry): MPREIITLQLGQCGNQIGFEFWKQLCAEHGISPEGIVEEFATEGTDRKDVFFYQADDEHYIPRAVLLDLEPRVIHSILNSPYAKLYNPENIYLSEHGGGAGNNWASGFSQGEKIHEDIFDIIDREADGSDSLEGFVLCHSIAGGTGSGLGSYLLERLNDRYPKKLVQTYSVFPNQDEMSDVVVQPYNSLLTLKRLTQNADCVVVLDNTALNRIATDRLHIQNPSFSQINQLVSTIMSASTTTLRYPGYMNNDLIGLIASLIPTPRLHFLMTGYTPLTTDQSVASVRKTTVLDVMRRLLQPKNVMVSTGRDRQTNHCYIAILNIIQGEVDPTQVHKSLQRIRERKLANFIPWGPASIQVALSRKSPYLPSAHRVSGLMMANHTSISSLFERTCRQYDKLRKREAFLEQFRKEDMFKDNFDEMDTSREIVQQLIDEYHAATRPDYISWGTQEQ
Assay: Tryptophan-based drug-binding assay, γ-tubulin
Details: tryptophan fluorescence decrease; 1 μM protein; mean±s.d., three independent experiments
Recorded pKd values for a group of compounds are listed next.
Entry type: numeric. Quantity: pKd, the -log10 of concentration in molar units.

Answered examples (4):
>>> observed_value("CC(C)(C)c1[nH]cnc1/C=c1\\[nH]c(=O)/c(=C/c2ccccc2)[nH]c1=O [Plinabulin]")
4.08
>>> observed_value("COc1cc2c(=O)c(-c3cc(OC)c4c(c3OC)OCO4)coc2cc1OCc1ccccc1 [Gatastatin, O^7-demethylbenzyl AG1]")
5.44
>>> observed_value("COc1ccc(/C=c2\\[nH]c(=O)/c(=C/c3cccc(C(=O)c4ccccc4)c3)[nH]c2=O)cc1 [KPU-406]")
4.34
>>> observed_value("COc1cc2occ(-c3cc(OC)c4c(c3OC)OCO4)c(=O)c2cc1OC [AG1, glaziovianin A, reference compound]")
4.07

// moving on: another record for pKd
Quick one: pKd of COC(=O)Nc1nc2ccc(C(=O)c3cccs3)cc2[nH]1 [Nocodazole] ?
4.26

---

Target: α/β-tubulin (Sus scrofa, UniProt P02550+P02554)
Construct: α/β-Tubulin was purified from porcine brain; from tissue; host or cells: porcine brain
Sequence (P02554 whole entry): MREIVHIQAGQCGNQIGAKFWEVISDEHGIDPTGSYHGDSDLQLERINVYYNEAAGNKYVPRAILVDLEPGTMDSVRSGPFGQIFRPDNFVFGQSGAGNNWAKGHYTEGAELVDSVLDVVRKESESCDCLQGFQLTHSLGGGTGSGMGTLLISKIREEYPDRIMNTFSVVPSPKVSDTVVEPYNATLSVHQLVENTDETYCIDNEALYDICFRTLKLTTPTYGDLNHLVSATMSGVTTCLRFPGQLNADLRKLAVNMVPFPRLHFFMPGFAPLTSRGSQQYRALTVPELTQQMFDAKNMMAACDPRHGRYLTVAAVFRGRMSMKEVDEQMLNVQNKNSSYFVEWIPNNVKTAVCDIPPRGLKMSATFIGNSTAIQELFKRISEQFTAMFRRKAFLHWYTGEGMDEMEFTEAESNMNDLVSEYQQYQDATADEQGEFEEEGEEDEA
Sequence (P02550 whole entry): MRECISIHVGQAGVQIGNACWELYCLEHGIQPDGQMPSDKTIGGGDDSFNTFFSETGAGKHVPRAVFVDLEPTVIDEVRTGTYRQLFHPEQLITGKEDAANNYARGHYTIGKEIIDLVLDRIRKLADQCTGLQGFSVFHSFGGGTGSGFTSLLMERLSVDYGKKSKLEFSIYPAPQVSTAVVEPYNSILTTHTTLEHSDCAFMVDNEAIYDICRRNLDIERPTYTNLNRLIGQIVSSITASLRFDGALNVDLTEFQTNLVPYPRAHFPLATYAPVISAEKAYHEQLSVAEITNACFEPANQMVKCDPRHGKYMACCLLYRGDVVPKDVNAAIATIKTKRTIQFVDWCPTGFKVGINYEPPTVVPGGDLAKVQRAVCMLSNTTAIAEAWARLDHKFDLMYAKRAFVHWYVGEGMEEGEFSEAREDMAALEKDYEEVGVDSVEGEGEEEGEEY
Experiment: Tryptophan-based drug-binding assay, α/β-tubulin
Design: species or system porcine
Conditions: tryptophan fluorescence decrease; 1 μM protein; mean±s.d., three independent experiments
pKd: −log10 of the molar value.
Give TRUE when the value for pKd is at least 5. Give FALSE when it is less.

Form field: pKd at least 5? Entry: COc1ccc(/C=c2\[nH]c(=O)/c(=C/c3cccc(C(=O)c4ccccc4)c3)[nH]c2=O)cc1 [KPU-406]
FALSE

---

Target: human γ-tubulin (Homo sapiens)
Construct: myc (C); 6His (C); made in house; host or cells: Sf21 insect cells (baculovirus)
Assay: Tryptophan-based drug-binding assay, γ-tubulin
Conditions: selectivity for γ-tubulin over α/β-tubulin
Experimental: In brief, 0.7 × 10^6 cells ml^−1 were infected with the γ-tubulin baculovirus. After 48 h, cells were collected by centrifugation at […] for 10 min and flash-frozen in liquid nitrogen and stored at −80 °C. Purification was carried out as described with slight modifications. […] Imidazole (final 10 mM) was added and the lysate was centrifuged again at 192,800g for 30 min at 4 °C. […]
Recorded Ratio of Kd[α/β-tubulin]/Kd[γ-tubulin] values for a group of compounds are listed next.
# answer = number (no unit)

>>> observed_value("CC(C)(C)c1[nH]cnc1/C=c1\\[nH]c(=O)/c(=C/c2ccccc2)[nH]c1=O")
0.01

Quick one: Ratio of Kd[α/β-tubulin]/Kd[γ-tubulin] of `COc1ccc(/C=c2\[nH]c(=O)/c(=C/c3cccc(C(=O)c4ccccc4)c3)[nH]c2=O)cc1` ?
0.57

Similarly, `COc1cc2c(=O)c(-c3cc(OC)c4c(c3OC)OCO4)coc2cc1OCc1ccccc1` ?
11.81

Similarly, `COC(=O)Nc1nc2ccc(C(=O)c3cccs3)cc2[nH]1` ?
0.03

Similarly, COc1cc2occ(-c3cc(OC)c4c(c3OC)OCO4)c(=O)c2cc1OC [AG1, glaziovianin A, reference compound] ?
0.61
